// data source = patent US20240041042A1

# System: Verconica persica (VERPE)
# assay_remarks: Pre-emergence herbicidal action against VERPE
# Assay type: in vivo
# run_conditions: dosage 80 g/ha
// values below are reported Pre-emergence action against VERPE in %
All answers are understood in %, so give the number only.

[[record]]
compound = "O=C(O)COc1nn(-c2ccccn2)c(-c2cncc(F)c2)c1Br"
recorded_metric = "Pre-emergence action against VERPE in %"
observed_measurement = 90

[[record]]
compound = "COC(=O)[C@H](C)NC(=O)COc1nn(-c2ccccn2)c(-c2ccc(F)nc2)c1Cl"
recorded_metric = "Pre-emergence action against VERPE in %"
observed_measurement = 80

[[record]]
compound = "O=C(O)COc1nn(-c2nc(F)ccc2F)c(-c2ccc(F)nc2)c1Cl"
recorded_metric = "Pre-emergence action against VERPE in %"
observed_measurement = 90

[[record]]
compound = "CCOC(=O)COc1nn(-c2ncccc2C(F)(F)F)c(-c2cncc(F)c2)c1Br"
recorded_metric = "Pre-emergence action against VERPE in %"
observed_measurement = 80

[[record]]
compound = "C[C@@H](Oc1nn(-c2ccccn2)c(-c2cncc(F)c2)c1Cl)C(=O)O"
recorded_metric = "Pre-emergence action against VERPE in %"
observed_measurement = 90

[[record]]
compound = "O=C(O)COc1nn(-c2nc(F)ccc2F)c(-c2cncc(F)c2)c1Cl"
recorded_metric = "Pre-emergence action against VERPE in %"
observed_measurement = 80


Documented Pre-emergence action against VERPE in % of "Cc1cccc(-n2nc(OCC(=O)O)c(Br)c2-c2ccc(F)nc2)n1" : 80

Documented Pre-emergence action against VERPE in % of "O=C(O)COc1nn(-c2ncccc2F)c(-c2cncc(F)c2)c1C1CC1" : 100

Documented Pre-emergence action against VERPE in % of "COC(=O)COc1nn(-c2nc(F)ccc2F)c(-c2ccc(F)nc2)c1Br" : 90

Documented Pre-emergence action against VERPE in % of "COCCOC(=O)COc1nn(-c2ccccn2)c(-c2ccc(F)nc2)c1Br" : 90

Documented Pre-emergence action against VERPE in % of "COC(=O)[C@@H](C)Oc1nn(-c2ncccc2F)c(-c2cccnc2)c1Br" : 90

Documented Pre-emergence action against VERPE in % of "COC(=O)CCOC(=O)[C@@H](C)Oc1nn(-c2ccccn2)c(-c2cncc(F)c2)c1Cl" : 90

Documented Pre-emergence action against VERPE in % of "C[C@@H](Oc1nn(-c2ncccc2F)c(-c2ccc(F)nc2)c1Br)C(=O)O" : 90

Documented Pre-emergence action against VERPE in % of "COC(=O)COc1nn(-c2ncccc2F)c(-c2cncc(F)c2)c1C1CC1" : 100

Documented Pre-emergence action against VERPE in % of "C[C@@H](Oc1nn(-c2ncccc2F)c(-c2ccc(F)nc2)c1Br)C(=O)OCc1ccccn1" : 80

Documented Pre-emergence action against VERPE in % of COC(=O)C(C)COC(=O)[C@@H](C)Oc1nn(-c2ccccn2)c(-c2cncc(F)c2)c1Cl (stereo partly shown) : 90

Documented Pre-emergence action against VERPE in % of "COC(=O)CCOC(=O)COc1nn(-c2ccccn2)c(-c2ccc(F)nc2)c1Br" : 90

Documented Pre-emergence action against VERPE in % of "C[C@@H](Oc1nn(-c2nc(F)ccc2F)c(-c2cncc(F)c2)c1C1CC1)C(=O)O" : 100

Documented Pre-emergence action against VERPE in % of "COC(=O)COc1nn(-c2nc(F)ccc2F)c(-c2cncc(F)c2)c1C1CC1" : 90
